- experimental-system: DGAT1 (human small intestinal microsomal preparation) (Homo sapiens)
- Construct: using a human small intestinal microsomal preparation (BD Biosciences) as the enzyme source; tissue BD Biosciences; host or cells: human small intestine microsomes
- Sequence (O75907 1-488): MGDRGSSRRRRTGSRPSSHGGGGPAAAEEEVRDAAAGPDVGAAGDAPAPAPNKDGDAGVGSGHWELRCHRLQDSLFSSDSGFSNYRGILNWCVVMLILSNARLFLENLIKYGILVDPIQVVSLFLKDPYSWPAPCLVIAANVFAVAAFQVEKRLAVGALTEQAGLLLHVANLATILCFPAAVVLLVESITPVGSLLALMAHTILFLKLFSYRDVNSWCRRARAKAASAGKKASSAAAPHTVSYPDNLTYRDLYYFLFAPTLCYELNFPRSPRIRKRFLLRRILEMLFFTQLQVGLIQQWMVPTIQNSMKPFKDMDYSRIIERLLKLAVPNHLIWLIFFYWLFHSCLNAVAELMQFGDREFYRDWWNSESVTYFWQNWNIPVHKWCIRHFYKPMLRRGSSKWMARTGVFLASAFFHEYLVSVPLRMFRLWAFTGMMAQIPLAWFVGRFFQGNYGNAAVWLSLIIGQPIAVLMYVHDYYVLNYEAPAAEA
- assay-info: Cell-free DGAT1 enzyme assay (LC-MS readout)
- Assay type: biochemical
- particulars: synthetic inhibitor
property-label: pIC50
The value called pIC50 is obtained by taking minus log10 of the concentration in mol/L.

Recorded pIC50 (compound `O=C(Nc1ccccc1)Nc1ccc(-c2ccc(C(=O)[C@@H]3CCC[C@H]3C(=O)O)cc2)cc1` ): 7.40

---

- experimental-system: DGAT1 (human small intestinal microsomal preparation) (Homo sapiens, UniProt O75907)
- Construct: using a human small intestinal microsomal preparation (BD Biosciences) as the enzyme source; tissue BD Biosciences; host or cells: human small intestine microsomes
- Sequence (O75907 1-488): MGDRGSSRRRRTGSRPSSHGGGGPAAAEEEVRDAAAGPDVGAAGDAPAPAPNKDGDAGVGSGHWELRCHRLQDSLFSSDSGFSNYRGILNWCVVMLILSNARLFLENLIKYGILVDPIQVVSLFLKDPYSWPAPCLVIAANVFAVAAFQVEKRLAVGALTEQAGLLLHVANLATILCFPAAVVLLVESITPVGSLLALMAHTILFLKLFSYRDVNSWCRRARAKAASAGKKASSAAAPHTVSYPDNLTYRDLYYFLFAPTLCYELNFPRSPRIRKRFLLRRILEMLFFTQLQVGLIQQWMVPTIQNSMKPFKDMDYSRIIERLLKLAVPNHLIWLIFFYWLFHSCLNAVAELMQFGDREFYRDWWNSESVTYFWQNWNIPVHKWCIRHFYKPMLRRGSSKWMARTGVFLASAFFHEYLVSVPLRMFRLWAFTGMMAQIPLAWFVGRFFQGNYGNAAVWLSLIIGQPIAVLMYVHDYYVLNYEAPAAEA
- assay-info: Cell-free DGAT1 enzyme assay (LC-MS readout)
- Format: biochemical
- particulars: single phytochemicals, mean of duplicates
# key: entry, value: pIC50
The value called pIC50 is obtained by taking minus log10 of the concentration in mol/L.

As a guide, the following entries are already answered.
O=c1oc2c(O)c(O)cc3c(=O)oc4c(O)c(O)cc1c4c23 [Ellagic Acid]; 5.46
O=C(O)c1cc(O)c(O)c(O)c1 [Gallic Acid]; 5.57
Oc1cc(O)c2cc(O)c(-c3ccc(O)c(O)c3)[o+]c2c1 [Cyanidin Chloride]; 5.51

pIC50 of O=C(O[C@@H]1Cc2c(O)cc(O)cc2O[C@@H]1c1cc(O)c(O)c(O)c1)c1cc(O)c(O)c(O)c1 [EGCG, Epigallocatechin Gallate] , assay on DGAT1 (human small intestinal microsomal preparation) (Homo sapiens, UniProt O75907), is 6.18
